Biological target: Induced myeloid leukemia cell differentiation protein Mcl-1 (Homo sapiens, UniProt Q07820)
Sequence (Q07820 whole entry): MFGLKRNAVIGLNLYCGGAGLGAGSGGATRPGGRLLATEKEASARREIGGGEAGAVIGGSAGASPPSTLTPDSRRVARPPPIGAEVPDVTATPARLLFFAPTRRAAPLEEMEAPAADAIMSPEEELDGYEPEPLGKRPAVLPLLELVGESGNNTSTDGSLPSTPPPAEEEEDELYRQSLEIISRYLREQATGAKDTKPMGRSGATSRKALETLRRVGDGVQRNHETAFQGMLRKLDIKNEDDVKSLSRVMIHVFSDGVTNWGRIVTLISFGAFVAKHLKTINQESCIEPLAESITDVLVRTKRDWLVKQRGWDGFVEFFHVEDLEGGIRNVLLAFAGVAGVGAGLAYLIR
Assay: Inhibition of biotin-Bim peptide binding to Mcl1 (unknown origin) expressed in Escherichia coli BL21 by ELISA
pIC50: −log10 of the molar value.
Label criterion met when pIC50 is at or above 7; otherwise label criterion not met.

Molecule	Assayed target	Answer label
CC(C)c1ccc(Sc2cnc(O)c(C(=O)NCc3ccccc3)c2)cc1	Induced myeloid leukemia cell differentiation protein Mcl-1 (Homo sapiens, UniProt Q07820)	criterion met
Cc1cc2c(C(C)C)c(O)c(O)c(C=O)c2c(O)c1-c1c(C)cc2c(C(C)C)c(O)c(O)c(C=O)c2c1O [GOSSYPOL]	Induced myeloid leukemia cell differentiation protein Mcl-1 (Homo sapiens, UniProt Q07820)	criterion not met
N#CC1=C2C(=NC1=O)c1cccc3c(N4CCSCC4)ccc2c13	Induced myeloid leukemia cell differentiation protein Mcl-1 (Homo sapiens, UniProt Q07820)	criterion met
CC(C)NC(=O)c1cc(Sc2ccc(C(C)C)cc2)c[nH]c1=O	Induced myeloid leukemia cell differentiation protein Mcl-1 (Homo sapiens, UniProt Q07820)	criterion not met
CC(C)c1ccc(Sc2cnc(O)c(C(=O)NCCCc3ccccc3)c2)cc1	Induced myeloid leukemia cell differentiation protein Mcl-1 (Homo sapiens, UniProt Q07820)	criterion not met
CCCCNC(=O)c1cc(Sc2ccc(C(C)C)cc2)c[nH]c1=O	Induced myeloid leukemia cell differentiation protein Mcl-1 (Homo sapiens, UniProt Q07820)	criterion not met
CC(C)c1ccc(Sc2c[nH]c(=O)c(C#N)c2)cc1	Induced myeloid leukemia cell differentiation protein Mcl-1 (Homo sapiens, UniProt Q07820)	criterion not met
